Test: clinical
Details: human, in vivo, Tmax
RESULT_TYPE: Tmax (h)

>>> experimental_result("Cc1nccn1CC1CCc2c(c3ccccc3n2C)C1=O (stereo not shown)")
6.3

----------
Experiment: PK analysis of [MPh-IR+Ond-PR2] in the Phase 2A study (24-hour blood PK samples, Day 1 and Day 14)
Details: human, in vivo
RESULT_TYPE: AUC(0-t) (ng·h/mL)

>>> experimental_result("COC(=O)C(c1ccccc1)C1CCCCN1 (stereo not shown) [Methylphenidate, methylphenidate]")
21.5

----------
Experiment: PK analysis of [MPh-IR+Ond-PR2] in the Phase 2A study (24-hour blood PK samples, Day 1 and Day 14)
Conditions: human, in vivo, AUC (0-inf), Day 1; mean
RESULT_TYPE: AUC(0-inf) (ng·h/mL)

>>> experimental_result("COC(=O)C(c1ccccc1)C1CCCCN1 (stereo not shown) [Methylphenidate, methylphenidate]")
21.6
